molecular target: human full-length MKNK1 (Homo sapiens, UniProt Q9BUB5, T385D); construct: GST (N); purchased Carna Biosciences 02-145; host or cells: insect cells (baculovirus expression system); assay: MKNK1 kinase high ATP assay (TR-FRET); format: biochemical; details: 2 mM ATP, after preincubation with MKNK1; read-out: MKNK1 IC50 (MKNK1 high ATP)
Sequence (Q9BUB5 1-424 isoform Q9BUB5-2 T344D): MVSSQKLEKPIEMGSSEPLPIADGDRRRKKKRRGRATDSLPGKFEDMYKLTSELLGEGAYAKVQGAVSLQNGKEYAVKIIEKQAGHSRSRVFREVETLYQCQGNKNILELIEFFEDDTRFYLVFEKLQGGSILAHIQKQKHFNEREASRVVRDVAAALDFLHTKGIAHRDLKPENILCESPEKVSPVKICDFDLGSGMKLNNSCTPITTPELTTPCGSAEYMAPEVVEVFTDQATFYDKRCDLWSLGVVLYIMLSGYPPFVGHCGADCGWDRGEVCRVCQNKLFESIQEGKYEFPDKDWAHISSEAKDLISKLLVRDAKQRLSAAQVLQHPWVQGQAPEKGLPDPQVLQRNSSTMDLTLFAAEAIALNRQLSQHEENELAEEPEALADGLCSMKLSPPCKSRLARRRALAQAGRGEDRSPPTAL
Field: pIC50. Provide a value for each of the compounds that follow.
Answers are plain numbers, as −log10 of the molar value.

Solved entries:
COc1cc2[nH]ncc2cc1Nc1ncnc2sc3c(c12)CCC(C(=O)N(C)C)C3 (racemic) [Example 64] = 9.10
CN(C)CCN1CCN(C(=O)C2CCc3c(sc4ncnc(Nc5ccc6[nH]ncc6c5)c34)C2)CC1 (racemic) [Example 129] = 8.11
O=C(NCc1ccc(C(F)(F)F)cc1)C1CCc2c(sc3ncnc(Nc4ccc5[nH]ncc5c4)c23)C1 (stereo not shown) [Example 28] = 8.40
CN(C)C(=O)N1CCN(C(=O)C2CCc3c(sc4ncnc(Nc5ccc6[nH]ncc6c5)c34)C2)CC1 (racemic) [Example 126] = 7.83
O=C(C1CCc2c(sc3ncnc(Nc4ccc5[nH]ncc5c4)c23)C1)N1CCN(C2CCCC2)CC1 (racemic) [Example 131] = 7.87
O=C(C1CCc2c(sc3ncnc(Nc4ccc5[nH]ncc5c4)c23)C1)N1CCOCC1 (stereo not shown) [Example 47] = 7.96

# input for lookup
Could you share which pIC50 value was measured for CC(C)NC(=O)C1CCc2c(sc3ncnc(Nc4cc5cn[nH]c5cc4OC(C)C)c23)C1 (racemic) [Example 72] ?
9.22
